- experimental_system: Adrenergic receptor alpha-1 (Rattus norvegicus, UniProt P15823+P23944+P43140)
- Sequence (P15823 whole entry): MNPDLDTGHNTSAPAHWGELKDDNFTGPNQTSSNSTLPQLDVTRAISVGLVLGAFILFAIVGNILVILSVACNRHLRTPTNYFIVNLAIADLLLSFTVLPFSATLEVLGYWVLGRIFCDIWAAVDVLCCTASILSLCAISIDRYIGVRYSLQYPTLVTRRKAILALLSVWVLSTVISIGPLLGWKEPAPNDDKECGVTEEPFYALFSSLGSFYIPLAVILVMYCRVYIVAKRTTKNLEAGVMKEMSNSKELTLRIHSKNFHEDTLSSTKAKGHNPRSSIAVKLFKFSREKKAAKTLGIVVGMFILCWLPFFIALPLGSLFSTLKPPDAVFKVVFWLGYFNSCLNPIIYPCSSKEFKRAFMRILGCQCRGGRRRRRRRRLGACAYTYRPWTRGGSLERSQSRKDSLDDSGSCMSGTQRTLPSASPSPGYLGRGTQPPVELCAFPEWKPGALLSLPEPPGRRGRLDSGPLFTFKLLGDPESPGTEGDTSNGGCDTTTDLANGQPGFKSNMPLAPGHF
- Sequence (P23944 whole entry): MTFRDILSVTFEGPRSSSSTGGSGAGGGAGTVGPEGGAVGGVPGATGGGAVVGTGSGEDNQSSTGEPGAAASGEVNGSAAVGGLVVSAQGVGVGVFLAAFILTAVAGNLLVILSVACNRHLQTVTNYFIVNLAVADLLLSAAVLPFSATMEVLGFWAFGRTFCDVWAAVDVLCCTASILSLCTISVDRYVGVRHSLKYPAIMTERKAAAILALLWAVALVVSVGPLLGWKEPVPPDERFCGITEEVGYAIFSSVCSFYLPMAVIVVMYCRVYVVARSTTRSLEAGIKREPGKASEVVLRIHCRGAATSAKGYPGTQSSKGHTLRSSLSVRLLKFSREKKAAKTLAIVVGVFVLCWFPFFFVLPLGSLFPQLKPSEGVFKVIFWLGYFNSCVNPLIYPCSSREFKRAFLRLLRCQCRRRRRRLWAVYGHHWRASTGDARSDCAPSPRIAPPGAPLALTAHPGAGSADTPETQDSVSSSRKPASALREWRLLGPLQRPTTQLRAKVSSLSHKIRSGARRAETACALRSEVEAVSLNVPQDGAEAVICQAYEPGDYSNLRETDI
- Sequence (P43140 whole entry): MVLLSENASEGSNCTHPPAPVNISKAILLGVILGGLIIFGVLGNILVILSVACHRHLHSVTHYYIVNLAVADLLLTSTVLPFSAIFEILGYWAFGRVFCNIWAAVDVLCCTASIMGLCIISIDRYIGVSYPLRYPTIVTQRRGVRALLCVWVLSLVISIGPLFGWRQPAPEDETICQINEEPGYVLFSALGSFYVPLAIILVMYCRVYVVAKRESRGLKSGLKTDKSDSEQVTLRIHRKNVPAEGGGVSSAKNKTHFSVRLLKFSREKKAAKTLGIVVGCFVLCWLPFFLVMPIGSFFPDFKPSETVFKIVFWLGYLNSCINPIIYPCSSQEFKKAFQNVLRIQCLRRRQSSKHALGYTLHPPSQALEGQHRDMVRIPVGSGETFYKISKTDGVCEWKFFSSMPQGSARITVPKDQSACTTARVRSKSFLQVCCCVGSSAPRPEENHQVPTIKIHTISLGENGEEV
Recorded IC50 values for a group of compounds are listed next.

{"columns": ["compound", "IC50 (nM)"],
 "data": [
  ["Br.Clc1ccc(N2CCN(C[C@H]3C[C@@H]3c3ccccc3)CC2)cc1 (racemic)", 81],
  ["Br.Clc1cccc(N2CCN(C[C@H]3C[C@@H]3c3ccccc3)CC2)c1 (racemic)", 70],
  ["Br.COc1c(Cl)cc(N2CCN(C[C@H]3C[C@@H]3c3ccccc3)CC2)cc1Cl (racemic)", 193],
  ["Br.Clc1ccc(N2CCN(C[C@H]3C[C@@H]3c3ccccc3)CC2)c(Cl)c1", 322],
  ["Br.COc1ccc(Cl)cc1N1CCN(C[C@H]2C[C@@H]2c2ccccc2)CC1 (racemic)", 8]
]}

====

- experimental_system: Adrenergic receptor alpha-1 (Rattus norvegicus, UniProt P15823+P23944+P43140)
API: label(entry) gives t if the entry's IC50 is strictly smaller than 0.04 µM; on equality or larger values it gives f.

{"columns": ["compound", "experimental_system", "classification"],
 "data": [
  ["Cl.c1ccc([C@H]2C[C@@H]2CN2CCN(c3ccccn3)CC2)cc1 (racemic)", "Adrenergic receptor alpha-1 (Rattus norvegicus, UniProt P15823+P23944+P43140)", "f"],
  ["Br.Cc1cc(F)ccc1N1CCN(C[C@H]2C[C@@H]2c2ccccc2)CC1", "Adrenergic receptor alpha-1 (Rattus norvegicus, UniProt P15823+P23944+P43140)", "t"],
  ["Cl.c1ccc([C@H]2C[C@@H]2CN2CCN(c3ncccn3)CC2)cc1 (racemic)", "Adrenergic receptor alpha-1 (Rattus norvegicus, UniProt P15823+P23944+P43140)", "f"],
  ["c1ccc([C@H]2C[C@@H]2CN2CCN(c3ccccc3)CC2)cc1 (racemic)", "Adrenergic receptor alpha-1 (Rattus norvegicus, UniProt P15823+P23944+P43140)", "t"],
  ["Br.Clc1ccc(N2CCN(C[C@H]3C[C@@H]3c3ccccc3)CC2)cc1Cl (racemic)", "Adrenergic receptor alpha-1 (Rattus norvegicus, UniProt P15823+P23944+P43140)", "f"]
]}

====

- experimental_system: Adrenergic receptor alpha-1 (Rattus norvegicus, UniProt P15823+P23944+P43140)

{"columns": ["compound", "experimental_system", "IC50"],
 "data": [
  ["Br.Fc1ccc([C@H]2C[C@@H]2CN2CCN(c3ccccc3Cl)CC2)cc1 (racemic)", "Adrenergic receptor alpha-1 (Rattus norvegicus, UniProt P15823+P23944+P43140)", "9 nM"],
  ["Br.Cc1ccc(N2CCN(CC3CC3c3ccccc3)CC2)c(C)c1 (racemic)", "Adrenergic receptor alpha-1 (Rattus norvegicus, UniProt P15823+P23944+P43140)", "144 nM"],
  ["Br.Cc1ccc(N2CCN(C[C@@H]3C[C@H]3c3ccccc3)CC2)c(C)c1", "Adrenergic receptor alpha-1 (Rattus norvegicus, UniProt P15823+P23944+P43140)", "131 nM"],
  ["Br.COc1ccc([C@H]2C[C@@H]2CN2CCN(c3ccc(Cl)cc3Cl)CC2)cc1 (racemic)", "Adrenergic receptor alpha-1 (Rattus norvegicus, UniProt P15823+P23944+P43140)", "61 nM"],
  ["Br.COc1cccc(N2CCN(C[C@H]3C[C@@H]3c3ccccc3)CC2)c1 (racemic)", "Adrenergic receptor alpha-1 (Rattus norvegicus, UniProt P15823+P23944+P43140)", "324 nM"],
  ["Br.Fc1ccc([C@H]2C[C@@H]2CN2CCN(c3ccc(Cl)cc3)CC2)cc1 (racemic)", "Adrenergic receptor alpha-1 (Rattus norvegicus, UniProt P15823+P23944+P43140)", "61 nM"],
  ["Br.Oc1ccc([C@H]2C[C@@H]2CN2CCN(c3ccc(Cl)cc3Cl)CC2)cc1 (racemic)", "Adrenergic receptor alpha-1 (Rattus norvegicus, UniProt P15823+P23944+P43140)", "74 nM"],
  ["Br.COc1cc(Cl)ccc1N1CCN(C[C@H]2C[C@@H]2c2ccccc2)CC1", "Adrenergic receptor alpha-1 (Rattus norvegicus, UniProt P15823+P23944+P43140)", "29 nM"],
  ["Br.COc1ccc(N2CCN(C[C@H]3C[C@@H]3c3ccccc3)CC2)cc1 (racemic)", "Adrenergic receptor alpha-1 (Rattus norvegicus, UniProt P15823+P23944+P43140)", "633 nM"],
  ["Br.Clc1ccc(N2CCN(C[C@H]3C[C@@H]3c3ccccc3)CC2)c(Cl)c1 (racemic)", "Adrenergic receptor alpha-1 (Rattus norvegicus, UniProt P15823+P23944+P43140)", "311 nM"],
  ["Br.Clc1ccccc1N1CCN(C[C@H]2C[C@@H]2c2ccccc2)CC1 (racemic)", "Adrenergic receptor alpha-1 (Rattus norvegicus, UniProt P15823+P23944+P43140)", "10 nM"],
  ["Br.c1ccc([C@H]2C[C@@H]2CN2CCN(c3cccnc3)CC2)cc1 (racemic)", "Adrenergic receptor alpha-1 (Rattus norvegicus, UniProt P15823+P23944+P43140)", "> 1246 nM"],
  ["Br.Clc1cccc(N2CCN(C[C@H]3C[C@@H]3c3ccccc3)CC2)c1Cl (racemic)", "Adrenergic receptor alpha-1 (Rattus norvegicus, UniProt P15823+P23944+P43140)", "329 nM"],
  ["Br.Cc1ccc(N2CCN(C[C@H]3C[C@@H]3c3ccccc3)CC2)c(C)c1", "Adrenergic receptor alpha-1 (Rattus norvegicus, UniProt P15823+P23944+P43140)", "137 nM"],
  ["Br.Br.COc1cc(F)ccc1N1CCN(C[C@H]2C[C@@H]2c2ccccc2)CC1", "Adrenergic receptor alpha-1 (Rattus norvegicus, UniProt P15823+P23944+P43140)", "14 nM"],
  ["Br.Cc1cc(Cl)ccc1N1CCN(C[C@H]2C[C@@H]2c2ccccc2)CC1", "Adrenergic receptor alpha-1 (Rattus norvegicus, UniProt P15823+P23944+P43140)", "307 nM"],
  ["Br.c1ccc([C@H]2C[C@@H]2CN2CCN(c3ccncc3)CC2)cc1 (racemic)", "Adrenergic receptor alpha-1 (Rattus norvegicus, UniProt P15823+P23944+P43140)", "> 10000 nM"]
]}
